target: human Beta-secretase (BACE), BACE1 (gene 23621); assay: NVS_ENZ_hBACE: NovaScreen (NVS) Enzymatic Assay for human Beta-secretase (BACE) (AID 2283140);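 also: hits are inhibitors that reduce fluorescent substrate signal versus DMSO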
Records with an inconclusive call do not appear. Activity calls are given as the source filed them. The calls were made as follows: active = hit-call score of the fitted dose curve at least 0.9, where 1 is the maximum; inconclusive = response in the unintended direction; inactive = score below 0.9.
Assay metric: AC50

> print(dat)
                                   compound                     target.or.test.system    recorded.value
1              CCCCCCCCCCCCCCCC[N+](C)(C)CC  human Beta-secretase (BACE), BACE1 (gene 23621)  6.41 µM (active)
2  CC1(C)S[C@@H]2[C@H](NC(=O)COc3ccccc3)C(=O)N2[C@H]1C(=O)O  human Beta-secretase (BACE), BACE1 (gene 23621)          inactive
3  CCCCC(CC)COC(=O)c1ccccc1O (centres undefined)  human Beta-secretase (BACE), BACE1 (gene 23621)  11.1 µM (active)
4         C=CCOCC(O)CCl (centres undefined)  human Beta-secretase (BACE), BACE1 (gene 23621)          inactive
